Assay: Growth inhibition of PI3Kdelta-overexpressing human SU-DHL-6 cells incubated for 72 hrs by MTT assay
Type: functional
# maps each entry to its GI50

{"columns": ["molecule", "GI50 (µM)"],
 "data": [
  ["COc1ncc(-c2ccc3ncnc(N[C@H]4CCN(C(=O)C5CCOCC5)C4)c3c2)cc1C=O", 0.17],
  ["COc1ncc(-c2ccc3ncnc(N[C@H]4CCN(C(=O)C5CCOCC5)C4)c3n2)cc1C(=O)Oc1ccc(F)cc1F", 0.031],
  ["COC(=O)c1cc(-c2ccc3ncnc(N[C@H]4CCN(C(=O)C5CCOCC5)C4)c3c2)cnc1OC", 0.05],
  ["COc1ncc(-c2ccc3ncnc(N[C@H]4CCN(C(=O)C5CCOCC5)C4)c3n2)cc1C(=O)Oc1ccc(Cl)cc1Cl", 0.053],
  ["COc1ncc(-c2ccc3ncnc(N[C@H]4CCN(C(=O)C5CCOCC5)C4)c3c2)cc1C(=O)Oc1ccc(Cl)cc1Cl", 0.142],
  ["COc1ncc(-c2ccc3ncnc(N[C@H]4CCN(C(=O)C5CCOCC5)C4)c3c2)cc1C(=O)Oc1ccc(C)cc1", 0.003],
  ["COC(=O)c1cc(-c2ccc3ncnc(N[C@H]4CCN(C(=O)C5CCOCC5)C4)c3n2)cnc1OC", 0.042],
  ["CC[C@H](Nc1ncnc2[nH]cnc12)c1nc2cccc(F)c2c(=O)n1-c1ccccc1 [IDELALISIB]", 0.2]
]}
